test: Cytotoxicity evaluation on HCT-116 cell line (SRB); assay type: cell-based; details: human, HCT-116 cells, 72 hours treatment, read-out: Anti-HCT116 CC50
Assay Endpoint: CC50 at 72 h (µM)
Give bare numbers, in µM.

Give the measured CC50 at 72 h of CCCCCCCCCCCCC#CCO [Comparative example A, reference compound] .
120

---

Assay: Cytotoxicity evaluation on Vero cell line (MTT)
Assay type: cell-based
Settings: African green monkey, Vero cells, read-out: Anti-VERO CC50
Method: The biological activity of the compounds of the present invention were evaluated. The activity against mycobacteria (Mtb) was assessed by minimum inhibitory concentration values (MIC, µM) determination. […] Cytotoxicity evaluation of the tested molecules by MTT assay was performed on the Vero cell line. […] The absorbance was measured at 570 nm with a microplate spectrophotometer (BIOTEK Eon). […]
Assay Endpoint: CC50 at 72 h (µM)
Give bare numbers, in µM.

{"Compound": "CCCCCCCCCCCC(O)C#CC(O)C1CC1 (stereo not shown)", "Readout Number": 43.9}
{"Compound": "CCCCCCCCCCCCC#CC(O)c1ccccc1 (stereo not shown)", "Readout Number": 58.7}
{"Compound": "CCCCCCCCCCC(O)CC#CC(O)C1CC1 (stereo not shown)", "Readout Number": 44.5}

Kindly consider the entry below.
GET /values?readout=CC50 at 72 h&item= C#CC(O)C#CC(O)CCCCCCCCCCC (stereo not shown)
2.5

---

For each of the compounds below, state its CC50 at 72 h.
test: Cytotoxicity evaluation on HCT-116 cell line (SRB); type: cell-based; conditions: human, HCT-116 colon cancer cells, HCT-116 cells, 72 hours treatment, read-out: Anti-HCT116 CC50
One number for each entry, in µM.

Record excerpt, results attached:
{"Compound": "C=C=CC(O)C#CCCCCCCCCCCCC (centres unmarked) [Compound 19, Octadeca-1,2-dien-5-yn-4-ol]", "Readout Number": 2.7}
{"Compound": "C#CC(O)C#CC(O)CCCCCCCCCCC (centres unmarked) [Compound 4, Heptadeca-1,4-diyne-3,6-diol]", "Readout Number": 4}
{"Compound": "CCCCCCCCCCCC(O)C#CC(O)C1CC1 (centres unmarked) [Compound 7, 1-Cyclopropylpentadec-2-yne-1,4-diol]", "Readout Number": 50}
{"Compound": "C=C=CC(O)C#CC(O)CCCCCCCCCCC (centres unmarked) [Compound 3, Octadeca-1,2-dien-5-yne-4,7-diol]", "Readout Number": 9}
{"Compound": "CCCCCCCCCCCC(O)C#CC(O)c1ccccc1 (centres unmarked) [Compound 5, 1-Phenylpentadec-2-yne-1,4-diol]", "Readout Number": 50}
{"Compound": "CCCCCCCCCCCC(O)C#CC(O)CC (centres unmarked) [Compound 6, Heptadec-4-yne-3,6-diol]", "Readout Number": 40}
{"Compound": "C#CC(O)C#CCCCCCCCCCCCC (centres unmarked) [Compound 20, Heptadeca-1,4-diyn-3-ol]", "Readout Number": 0.1}

State the recorded CC50 at 72 h for this entry: CCCCCCCCCCC(O)CC#CC(O)c1ccccc1 (centres unmarked) [Compound 15, 1-Phenylpentadec-2-yne-1,5-diol]
41

Source listed as patent EP4613730A1.
